Test system: A549
Test Name: NCI tumour cell line growth inhibition, 48 h
The source made the active and inactive calls. Rule as the data show it: active = GI50 up to about 1.1 µM and inactive = higher.
Quantity Measured: GI50

Look up GI50 for this molecule: CC1(C)OCC(/C=C\C(O)CC2(C)OCCO2)CO1 (stereo unspecified)
> 100 µM (inactive)

Look up GI50 for this molecule: OCc1ccc(C2CC(c3ccco3)=NN2c2ccccc2)o1 (stereo unspecified)
> 100 µM (inactive)

Look up GI50 for this molecule: c1ccc(N/N=C2\CC(c3ccccc3)Oc3ccccc32)cc1 (stereo unspecified)
53.7 µM (inactive)

Look up GI50 for this molecule: COc1cccc(C2c3cc4c(cc3OC(N3CCCC3)C2C)OCO4)c1OC (stereo unspecified)
3.53 µM (inactive)

Look up GI50 for this molecule: OCC(O)COCn1nncc1Cn1ncc2c(SCc3ccccc3)ncnc21 (stereo unspecified)
> 100 µM (inactive)

Look up GI50 for this molecule: C[C@@H](Cl)[C@H]1CCCN(Cc2ccc(Br)cc2)C1
> 12.5 µM (inactive)

Look up GI50 for this molecule: COC(=O)C1=C(C)N(NC(=O)c2cccc(Cl)c2)C(C)(O)C12CCOC2=O (stereo unspecified)
> 100 µM (inactive)

Look up GI50 for this molecule: N#Cc1c2ccc([N+](=O)[O-])cc2c(=O)n2c1[nH]c1ccc(C(F)(F)F)cc12
> 55.8 µM (inactive)

Look up GI50 for this molecule: COC(=O)C(C(=O)C(=O)Nc1nnc(S)[nH]1)c1csc(N)n1 (stereo unspecified)
> 100 µM (inactive)

Look up GI50 for this molecule: CCOC(=O)NC(=O)c1cn(-c2ccc(CCOC(=O)NCCCCCCNC(=O)OCCc3ccc(-n4c(=O)[nH]cc(C(=O)NC(=O)OCC)c4=O)cc3)cc2)c(=O)[nH]c1=O
> 100 µM (inactive)

Look up GI50 for this molecule: CCOC(=O)C(Cc1c[nH]c2cc([N+](=O)[O-])ccc12)NS(=O)(=O)c1ccc2ccccc2c1 (stereo unspecified)
30.6 µM (inactive)

Look up GI50 for this molecule: Cc1ccc(NC(=S)SCCC(=O)O)cc1
> 100 µM (inactive)

Look up GI50 for this molecule: O=C(NC1C=Nc2ccccc2NC1=O)c1ccccc1Cl (stereo unspecified)
48 µM (inactive)

Look up GI50 for this molecule: CC(C)C(NC(=O)C(Cc1ccccc1)NC(=O)[C@H]1CCC[C@H]1NC(=O)C(N)Cc1ccc(O)cc1)C(N)=O (stereo partly specified)
> 100 µM (inactive)

Look up GI50 for this molecule: COC(=O)C1CCc2c1c(=O)n1c([nH]c3ccccc31)c2C#N (stereo unspecified)
> 100 µM (inactive)

Look up GI50 for this molecule: O=c1cnn2c(n1)sc1ccc3ccccc3c12
65.6 µM (inactive)

Look up GI50 for this molecule: COc1ccc(N[C@H](CSc2ccc(C)cc2)c2ccc(F)cc2)cc1
74.6 µM (inactive)

Look up GI50 for this molecule: O=C(NC1C2CC3CC(C2)CC1C3)c1cc(/C=C/c2ccccc2)nc(S)n1 (stereo unspecified)
> 100 µM (inactive)

Look up GI50 for this molecule: COc1cc2cc(C(=O)N3CC(CCl)c4ccccc43)[nH]c2c(OC)c1OC (stereo unspecified)
47.1 µM (inactive)

Look up GI50 for this molecule: CCOC(=O)C1=C(Nc2ccc(Br)cc2)OC/C1=N\NC(=O)c1ccccc1O
4.06 µM (inactive)

Look up GI50 for this molecule: CC1C2CC(CC2(C)O)C1(C)C (stereo unspecified)
> 100 µM (inactive)

----------
System: XF498
Test Name: NCI tumour cell line growth inhibition, 48 h
The source made the active and inactive calls. Rule as the data show it: active = GI50 up to about 1.1 µM and inactive = higher.
Quantity Measured: GI50

Look up GI50 for this compound: Cc1csc(=S)n1OC(=O)NC1CCCCC1
> 100 µM (inactive)

Look up GI50 for this compound: O=c1[nH]c(=O)n([C@@H]2O[C@H](CO)[C@@H](O)[C@H]2O)cc1F
1.92 µM (inactive)

Look up GI50 for this compound: O=C(NC1C=Nc2ccccc2NC1=O)c1ccccc1Cl (stereo unspecified)
22.2 µM (inactive)

Look up GI50 for this compound: CCCCC(NC(=O)CC)C(=O)O (stereo unspecified)
> 100 µM (inactive)

Look up GI50 for this compound: COc1cc(/C=N\O[Si](C)(C)C(C)(C)C)ccc1O[Si](C)(C)C(C)(C)C
38.6 µM (inactive)

Look up GI50 for this compound: O=Cc1ccc(CCl)cc1
20 µM (inactive)

Look up GI50 for this compound: COc1cc(/C=C\c2ccccn2)cc(OC)c1OC
16.2 µM (inactive)

Look up GI50 for this compound: O=C(O)C(C(=O)O)P(=S)(S)c1ccccc1 (stereo unspecified)
> 100 µM (inactive)

Look up GI50 for this compound: COC(=O)C1=C(C)N(NC(=O)c2cccc(Cl)c2)C(C)(O)C12CCOC2=O (stereo unspecified)
> 100 µM (inactive)

Look up GI50 for this compound: COC(=O)C1OC(Oc2cc(O)c3c(=O)cc(-c4ccc(O)cc4)oc3c2)C(O)C(O)C1O (stereo unspecified)
> 100 µM (inactive)

Look up GI50 for this compound: CCC(C)(O)c1cn(-c2cccc(S(=O)(=O)O)c2)nn1 (stereo unspecified)
> 100 µM (inactive)

----------
Test system: NCI-H522
Test Name: NCI tumour cell line growth inhibition, 48 h
Active and inactive are the calls of the source. No stated cut-off is given here; in the data, active = GI50 up to about 1.1 µM and inactive = higher.
Quantity Measured: GI50

Look up GI50 for this molecule: O=C1c2ccccc2C(=O)c2sc(Nc3cc(Cl)ccc3Cl)nc21
2.95 µM (inactive)

Look up GI50 for this molecule: CC1(C)Cc2c(c3ccccc3c3nc4c(nc23)c2c(c3ccccc34)OC(C)(C)C2)O1
> 100 µM (inactive)

Look up GI50 for this molecule: CCOC(=O)C1C(=O)CC(C)(O)C(C(=O)OCC)C1c1ccc(OC)cc1 (stereo not given)
> 100 µM (inactive)

Look up GI50 for this molecule: CC(OC(=O)C(CC(=O)OC(C)(C)C)NC(=O)OC(C)(C)C)C(=O)OCc1ccccc1 (stereo not given)
> 100 µM (inactive)

Look up GI50 for this molecule: CCOC(=O)C1(C)C2=CC=C(O2)C(C)(C)C2=CC=C(O2)C(C)(C)C2=CC=C(O2)C(C)(C)C2=CC=C1O2
> 100 µM (inactive)

Look up GI50 for this molecule: CO[P@@]1(=O)O[C@@H](c2ccccc2)[C@H](O)[C@]1(O)c1ccccc1
> 100 µM (inactive)

Look up GI50 for this molecule: O=S(=O)(Nc1nccs1)c1ccc([As](=O)(O)O)cc1
> 100 µM (inactive)

Look up GI50 for this molecule: COC(OC)C1OC(CO)C(n2ccc(N)nc2=O)C1O (stereo not given)
> 100 µM (inactive)

Look up GI50 for this molecule: Cn1nc(-c2ccccc2)c(C(=O)/C=C/c2ccccc2)c(N2CCCCC2)c1=O
7.05 µM (inactive)

Look up GI50 for this molecule: Cc1cccc(Cl)c1NC(=O)c1cccc([N+](=O)[O-])c1O
20.4 µM (inactive)

----------
Test system: SNB-75
Test Name: NCI tumour cell line growth inhibition, 48 h
Activity calls are given as the source filed them. Rule as the data show it: active = GI50 up to about 1.1 µM and inactive = higher.
Quantity Measured: GI50

Look up GI50 for this molecule: CCOC(=O)/C=C(/C(=O)OCC)n1ccc(=O)n(Cc2cnnn2CCCCOC(C)=O)c1=O
> 100 µM (inactive)

Look up GI50 for this molecule: CCOC(=O)c1cc2c3c(c(C(C)=O)c(O)c2[nH]1)N(CC(C)CC)CC3 (stereo not given)
30.7 µM (inactive)

Look up GI50 for this molecule: COc1ccc(N[C@H](CSc2ccc(C)cc2)c2ccc(F)cc2)cc1
> 100 µM (inactive)

Look up GI50 for this molecule: CO[C@@]12C[C@H](CNC(=O)c3ccc[nH]3)O[C@@H]1NC(=O)N2
> 100 µM (inactive)

Look up GI50 for this molecule: O=S1(=O)OCCOS(=O)(=O)C1(Cl)Cl
> 100 µM (inactive)

Look up GI50 for this molecule: O=C1OC(c2cccc(C(F)(F)F)c2)c2ccc3ccccc3c21 (stereo not given)
18.7 µM (inactive)

Look up GI50 for this molecule: O=[N+]([O-])c1ccccc1S(=O)(=O)N1CCCc2cc(Cl)ccc21
4.59 µM (inactive)

Look up GI50 for this molecule: O=C(O)C(C(=O)O)P(=S)(S)c1ccccc1 (stereo not given)
> 100 µM (inactive)

Look up GI50 for this molecule: CN(C)CCNC(=O)c1c(O)ccc2c1c1c(n2CCc2ccccc2)C(=O)c2ccccc2C1=O
14.4 µM (inactive)

Look up GI50 for this molecule: O=C1OCC(O)=C1C(c1ccc(Cl)cc1)c1cc2c(cc1O)OCO2 (stereo not given)
> 100 µM (inactive)

----------
Answer each item with its documented GI50.
System: LOX IMVI
Test Name: NCI tumour cell line growth inhibition, 48 h
Active and inactive are the calls of the source. Cut-off read from the data, not from the text of the source: active = GI50 up to about 1.1 µM and inactive = higher.

Look up GI50 for this compound: COc1cc(C2S/C(=C/c3ccccc3)C(=O)N2c2ccc(Cl)cc2)cc(OC)c1OC (stereo not given)
6.03 µM (inactive)

Look up GI50 for this compound: C[C@@H](Cl)[C@H]1CCCN(Cc2ccc(Br)cc2)C1
> 12.5 µM (inactive)

Look up GI50 for this compound: O=C(NC1C2CC3CC(C2)CC1C3)c1cc(/C=C/c2ccccc2)nc(S)n1 (stereo not given)
> 100 µM (inactive)

Look up GI50 for this compound: Cc1c(O)c(OC2OC(CO)C(O)C(O)C2O)cc2c1CC[C@@H]1C2(C)C(=O)C[C@]2(C)[C@@H]([C@@](C)(O)C(O)/C=C/C(C)(C)O)[C@H](O)C[C@@]12C (stereo not given in full)
> 100 µM (inactive)

Look up GI50 for this compound: COc1ccccc1/C=C/c1nc2ccccc2o1
> 10 µM (inactive)
